measuredOn: T1, Human IL-11 (human, UniProt P20809 22-199)
T1 construct: Recombinant human IL-11 (GenScript Cat. No. Z03108-1) or IL-11 secreted by human cells; the mature form is said to have 178 residues; also called recombinant human IL-11; endogenously produced IL-11
T1 sequence: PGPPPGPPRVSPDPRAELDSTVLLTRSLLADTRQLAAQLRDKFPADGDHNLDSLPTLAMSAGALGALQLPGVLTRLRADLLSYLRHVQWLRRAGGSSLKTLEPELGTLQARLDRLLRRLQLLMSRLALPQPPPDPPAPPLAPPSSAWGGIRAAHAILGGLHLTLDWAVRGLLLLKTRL
protocolDescription: SPR (BIAcore T200) single cycle kinetics, human IL-11 on CM5 chip, 1:1 model
metric: log10 of Kd (log10 of the value in nM)
Note the log scale: values are log10 of Kd expressed in nM.

Summary for this binder, 02T (antibody, IgG1, V domains shown, C91T variant of the YU100-G08 VL) VH: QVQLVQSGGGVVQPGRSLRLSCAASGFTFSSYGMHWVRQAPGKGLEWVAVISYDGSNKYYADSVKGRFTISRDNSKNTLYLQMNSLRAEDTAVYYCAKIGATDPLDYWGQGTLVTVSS VL: QSALTQPRSVSGSPGQSVTLSCTGTSSDVGGYNYVSWYQHYPGKAPKLMIFDVNERSSGVPDRFSGSKSGNTASLTISGLQAEDEADYYCTSYAGRYTWMFGGGTKVTVLG : log10 of Kd is 1.54

Summary for this binder, 02S (antibody, IgG1, V domains shown, C91S variant of the YU100-G08 VL) VH: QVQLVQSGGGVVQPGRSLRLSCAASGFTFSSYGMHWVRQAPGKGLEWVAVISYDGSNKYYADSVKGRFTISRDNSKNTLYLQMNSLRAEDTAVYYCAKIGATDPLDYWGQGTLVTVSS VL: QSALTQPRSVSGSPGQSVTLSCTGTSSDVGGYNYVSWYQHYPGKAPKLMIFDVNERSSGVPDRFSGSKSGNTASLTISGLQAEDEADYYCSSYAGRYTWMFGGGTKVTVLG : log10 of Kd is 0.70

Summary for this binder, 02V (antibody, IgG1, V domains shown, C91V variant of the YU100-G08 VL) VH: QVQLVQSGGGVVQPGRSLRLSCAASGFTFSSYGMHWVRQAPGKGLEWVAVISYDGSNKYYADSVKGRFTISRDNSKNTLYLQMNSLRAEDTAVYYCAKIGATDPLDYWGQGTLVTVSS VL: QSALTQPRSVSGSPGQSVTLSCTGTSSDVGGYNYVSWYQHYPGKAPKLMIFDVNERSSGVPDRFSGSKSGNTASLTISGLQAEDEADYYCVSYAGRYTWMFGGGTKVTVLG : log10 of Kd is 1.02

Summary for this binder, 02Q (antibody, IgG1, V domains shown, C91Q variant of the YU100-G08 VL) VH: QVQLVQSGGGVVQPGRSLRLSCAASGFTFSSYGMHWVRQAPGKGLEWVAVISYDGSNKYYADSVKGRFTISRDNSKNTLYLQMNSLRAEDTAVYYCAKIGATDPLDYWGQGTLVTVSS VL: QSALTQPRSVSGSPGQSVTLSCTGTSSDVGGYNYVSWYQHYPGKAPKLMIFDVNERSSGVPDRFSGSKSGNTASLTISGLQAEDEADYYCQSYAGRYTWMFGGGTKVTVLG : log10 of Kd is 0.77

Summary for this binder, 02L (antibody, IgG1, V domains shown, C91L variant of the YU100-G08 VL) VH: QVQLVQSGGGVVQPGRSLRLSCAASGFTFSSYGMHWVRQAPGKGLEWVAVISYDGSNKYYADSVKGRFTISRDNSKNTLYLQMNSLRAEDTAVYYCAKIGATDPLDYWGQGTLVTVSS VL: QSALTQPRSVSGSPGQSVTLSCTGTSSDVGGYNYVSWYQHYPGKAPKLMIFDVNERSSGVPDRFSGSKSGNTASLTISGLQAEDEADYYCLSYAGRYTWMFGGGTKVTVLG : log10 of Kd is 0.64

Summary for this binder, YU100-G08 (antibody, human IgG1, V domains shown, Light chain shuffled human antibody; Only the variable domains are tied to the clone) VH: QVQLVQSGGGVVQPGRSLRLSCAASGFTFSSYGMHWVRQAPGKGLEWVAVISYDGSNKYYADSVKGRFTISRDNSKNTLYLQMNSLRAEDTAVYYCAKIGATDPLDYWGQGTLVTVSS VL: QSALTQPRSVSGSPGQSVTLSCTGTSSDVGGYNYVSWYQHYPGKAPKLMIFDVNERSSGVPDRFSGSKSGNTASLTISGLQAEDEADYYCCSYAGRYTWMFGGGTKVTVLG : log10 of Kd is 0.55

Summary for this binder, 02I (antibody, IgG1, V domains shown, C91I variant of the YU100-G08 VL) VH: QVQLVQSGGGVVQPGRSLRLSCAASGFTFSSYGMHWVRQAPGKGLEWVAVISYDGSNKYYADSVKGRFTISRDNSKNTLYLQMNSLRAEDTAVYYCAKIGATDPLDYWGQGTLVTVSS VL: QSALTQPRSVSGSPGQSVTLSCTGTSSDVGGYNYVSWYQHYPGKAPKLMIFDVNERSSGVPDRFSGSKSGNTASLTISGLQAEDEADYYCISYAGRYTWMFGGGTKVTVLG : log10 of Kd is 0.46

Summary for this binder, YU100-G08_02A (antibody, V domains shown, C91A variant of the YU100-G08 VL) VH: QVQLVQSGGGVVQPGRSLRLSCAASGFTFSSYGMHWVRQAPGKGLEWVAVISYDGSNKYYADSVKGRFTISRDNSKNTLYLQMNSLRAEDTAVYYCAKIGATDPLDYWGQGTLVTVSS VL: QSALTQPRSVSGSPGQSVTLSCTGTSSDVGGYNYVSWYQHYPGKAPKLMIFDVNERSSGVPDRFSGSKSGNTASLTISGLQAEDEADYYCASYAGRYTWMFGGGTKVTVLG : log10 of Kd is 0.65

Summary for this binder, 02G (antibody, IgG1, V domains shown, C91G variant of the YU100-G08 VL) VH: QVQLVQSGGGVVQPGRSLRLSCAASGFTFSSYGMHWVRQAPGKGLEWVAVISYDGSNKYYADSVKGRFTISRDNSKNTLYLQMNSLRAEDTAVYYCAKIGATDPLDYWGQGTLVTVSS VL: QSALTQPRSVSGSPGQSVTLSCTGTSSDVGGYNYVSWYQHYPGKAPKLMIFDVNERSSGVPDRFSGSKSGNTASLTISGLQAEDEADYYCGSYAGRYTWMFGGGTKVTVLG : log10 of Kd is 3.30

Value source: patent US20210230266A1
